// provenance: ChEMBL document CHEMBL2346598

# Organism: Rattus norvegicus
# experimental-details: Positive allosteric modulation of GABAB receptor in rat cortical membranes assessed as potentiation of GABA-induced [35S]GTPgammaS binding after 30 mins by liquid scintillation counting analysis
# Assay type: functional, cell membranes
# condition-label: Membrane
Activity calls are given as the source filed them. The calls are words filed in the database; no cut-off is given here.
measure-name: Activity

Worked cases, answers included:
line-notation: CCc1c(C)sc(NC(=O)c2ccccc2)c1C(=O)OC
Activity: inactive
//
line-notation: CCc1c(C)sc(NC(=O)c2ccc(C(C)(C)C)cc2)c1C(=O)OC
Activity: inactive
//
line-notation: CCc1c(C)sc(NC(=O)c2ccc(I)cc2)c1C(=O)OC
Activity: inactive
//
line-notation: CCc1c(C)sc(NC(=O)c2ccc(Cl)cc2)c1C(=O)OC(C)(C)C
Activity: inactive
//
line-notation: CCc1c(C)sc(NS(=O)(=O)c2ccc(C)cc2)c1C(=O)OC
Activity: inactive

Can you look up the measured Activity of CCc1c(C)sc(NC(=O)c2ccc(C)cc2)c1C(=O)OC(C)(C)C for me?
inactive

Would you kindly repeat that for CCc1c(C)sc(NC(=O)c2ccc(OC)cc2)c1C(=O)OC ?
inactive

Would you kindly repeat that for CCc1c(C)sc(NC(=O)c2ccc(Br)cc2)c1C(=O)OC ?
inactive

Would you kindly repeat that for CCc1c(C)sc(NC(C)=O)c1C(=O)OC ?
inactive
